Test system: A549
Assay: Cytotoxicity against human A549 cells by SRB assay
Assay type: functional, cell-based
// values below are reported IC50
Answer in nM, number only, no unit symbol.

The cases that follow already have their IC50 on record.
1. CCCCCCCC[C@@H](O)/C=C/C=C/C(=O)O[C@@]12C[C@@H](C)[C@@]3(O)[C@@H](C=C(CO)C[C@]4(O)C(=O)C(C)=C[C@@H]34)[C@@H]1[C@@]2(C)COC(C)=O ... 1800
2. CCCCCCCC/C=C/C=C/CC(=O)O[C@@]12C[C@@H](C)[C@@]3(O)[C@@H](C=C(CO)C[C@]4(O)C(=O)C(C)=C[C@@H]34)[C@@H]1[C@@]2(C)COC(C)=O ... 900
3. CCCCCCCCC(=O)/C=C/C=C/C(=O)O[C@@]12C[C@@H](C)[C@@]3(O)[C@@H](C=C(CO)C[C@]4(O)C(=O)C(C)=C[C@@H]34)[C@@H]1[C@@]2(C)COC(C)=O ... 400

Proceeding to the next compound to report its IC50.
Query string: Complete the entry with IC50 for `CCCCCCCC[C@H](O)/C=C/C=C/C(=O)O[C@@]12C[C@@H](C)[C@@]3(O)[C@@H](C=C(CO)C[C@]4(O)C(=O)C(C)=C[C@@H]34)[C@@H]1[C@@]2(C)COC(C)=O`
Result string: 200
